- experimentalTarget: Purine nucleoside phosphorylase (Homo sapiens, UniProt P00491)
- Sequence (P00491 whole entry): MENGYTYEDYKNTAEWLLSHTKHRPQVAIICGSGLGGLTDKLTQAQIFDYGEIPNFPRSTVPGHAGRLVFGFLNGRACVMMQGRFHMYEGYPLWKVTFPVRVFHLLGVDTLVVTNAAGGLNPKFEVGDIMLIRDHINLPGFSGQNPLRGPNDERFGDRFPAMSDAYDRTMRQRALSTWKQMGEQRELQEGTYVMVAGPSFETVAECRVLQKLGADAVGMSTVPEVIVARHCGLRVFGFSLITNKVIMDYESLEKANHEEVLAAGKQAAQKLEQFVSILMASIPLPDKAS
- methodDescription: Inhibition of human PNP
pKi: −log10 of the molar value.
Listed next: entries and their corresponding pKi.

[
  {
    "compound": "Nc1nc2c(ncn2COCCO)c(=O)[nH]1 [ACYCLOVIR]",
    "experimentalTarget": "Purine nucleoside phosphorylase (Homo sapiens, UniProt P00491)",
    "pKi": 4.04
  },
  {
    "compound": "Nc1nc2c(Cc3cccnc3)c[nH]c2c(=O)[nH]1 [PELDESINE]",
    "experimentalTarget": "Purine nucleoside phosphorylase (Homo sapiens, UniProt P00491)",
    "pKi": 7.87
  }
]
